- Test system: 565726-208-R1-J5-PDC complex spheroids, growth inhibition;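 also: spheroids exposed to compounds for seven days before readout; 100% = DMSO vehicle control viability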
- ASSAY NOTES: Anticancer human tumor 565726-208-R1-J5-PDC patient-derived pancreatic adenocarcinoma cell line growth inhibition [RAS]
- TEST PARAMETERS: second compound 0.003 µM; first compound 3.16 µM; active compounds read low
REPORTED METRIC: viability, T/C (%)
Just the number please, in %, no unit attached.

Looking up CCC(CC)c1cc(NC2CCC(N)C2)n2nccc2n1 (configuration not stated) + CCn1c(-c2cc(N3CCN(C)CC3)cnc2C(C)OC)c2c3cc(ccc31)-c1csc(n1)CC(NC(=O)C1CC1C)C(=O)N1CCCC(N1)C(=O)OCC(C)(C)C2 , I found its viability, T/C recorded as 0.47

Measured viability, T/C, CCC(CC)c1cc(NC2CCC(N)C2)n2nccc2n1 (configuration not stated) + CCn1c(-c2cccnc2C(C)OC)c2c3cc(ccc31)N1CCOC(CC(NC(=O)C(C(C)C)N(C)C(=O)C3(F)CCN(C(=O)C#CC(C)(C)N(C)C)CC3)C(=O)N3CCCC(N3)C(=O)OCC(C)(C)C2)C1 : 0.77
